MEASURED_ON: Cyclophilin A (Homo sapiens)
Construct: made in house
ASSAY_SUMMARY: AlphaLISA inhibition of binding of biotinylated Cyclosporin A to FLAG tagged Cyclophilin A
CONDITION_INFO: AlphaLISA signal; test concentration not given
Where a SMILES comes first, the peptide text is derived from it. [ ]: non-standard residue; d: D form. MeBmt = C/C=C/C[C@@H](C)[C@@H](O)[C@H](NC)C(=O)O; NMeF = CN[C@@H](Cc1ccccc1)C(=O)O; NMeL = CN[C@@H](CC(C)C)C(=O)O; NMeV = CN[C@H](C(=O)O)C(C)C; NMeA = CN[C@@H](C)C(=O)O; Abu = CC[C@H](N)C(=O)O; Sar = CNCC(=O)O
Hi there, I'd appreciate the recorded % signal for every entry that follows.
Give the number; % is assumed, so skip it.

stdin: Find % signal for C/C=C/C[C@@H](C)[C@@H](O)[C@H]1C(=O)N[C@@H](CC)C(=O)N(C)CC(=O)N(C)[C@@H](CC(C)C)C(=O)N[C@@H](C(C)C)C(=O)N(C)[C@@H](CC(C)C)C(=O)N[C@@H](CC)C(=O)N[C@H](C)C(=O)N(C)[C@@H](CC(C)C)C(=O)N(C)[C@@H](CC(C)C)C(=O)N(C)[C@@H](C(C)C)C(=O)N1C on Cyclophilin A (Homo sapiens) and write it down.
stdout: 4.70

stdin: Give the observed % signal of C/C=C/C[C@@H](C)[C@@H](O)[C@H]1C(=O)N[C@@H](CC)C(=O)N(C)CC(=O)N(C)CC(=O)N[C@@H](C(C)C)C(=O)N(C)[C@@H](C)C(=O)N[C@@H](C)C(=O)N[C@H](C)C(=O)N(C)[C@@H](CC(C)C)C(=O)N(C)[C@@H](CC(C)C)C(=O)N(C)[C@@H](C(C)C)C(=O)N1C [Compound C5] (cyclo([MeBmt][Abu][Sar][Sar]V[NMeA]A[dA][NMeL][NMeL][NMeV])) for Cyclophilin A (Homo sapiens).
stdout: 9.09

stdin: State the measured % signal (Cyclophilin A (Homo sapiens)) of C/C=C/C[C@@H](C)[C@@H](O)[C@H]1C(=O)N[C@@H](CC)C(=O)N(C)CC(=O)N(C)[C@@H](Cc2ccccc2)C(=O)N[C@@H](C)C(=O)N(C)CC(=O)N[C@@H](C)C(=O)N[C@H](C)C(=O)N(C)[C@@H](CC(C)C)C(=O)N(C)[C@@H](CC(C)C)C(=O)N(C)[C@@H](C(C)C)C(=O)N1C [Compound C20] (cyclo([MeBmt][Abu][Sar][NMeF]A[Sar]A[dA][NMeL][NMeL][NMeV]))
stdout: 2.77

----------
pIC50: −log10 of the molar value. Where a SMILES comes first, the peptide text is derived from it. [ ]: non-standard residue; d: D form. MeBmt = C/C=C/C[C@@H](C)[C@@H](O)[C@H](NC)C(=O)O; NMeF = CN[C@@H](Cc1ccccc1)C(=O)O; NMeL = CN[C@@H](CC(C)C)C(=O)O; NMeV = CN[C@H](C(=O)O)C(C)C; NMeA = CN[C@@H](C)C(=O)O; Abu = CC[C@H](N)C(=O)O; Sar = CNCC(=O)O
Record form. Attribute: pIC50. Fill in for each entry.

stdin: Report value only: pIC50, Cyclophilin A (Homo sapiens, UniProt P62937), C/C=C/C[C@@H](C)[C@@H](O)[C@H]1C(=O)N[C@@H](CC)C(=O)N(C)CC(=O)N(C)[C@@H](Cc2ccccc2)C(=O)N[C@@H](C)C(=O)N(C)CC(=O)N[C@@H](C)C(=O)N[C@H](C)C(=O)N(C)[C@@H](CC(C)C)C(=O)N(C)[C@@H](CC(C)C)C(=O)N(C)[C@@H](C(C)C)C(=O)N1C [Compound C20] (cyclo([MeBmt][Abu][Sar][NMeF]A[Sar]A[dA][NMeL][NMeL][NMeV]))
stdout: > 5.70

stdin: Recall the reported pIC50 of C/C=C/C[C@@H](C)[C@@H](O)[C@H]1C(=O)N[C@@H](CC)C(=O)N(C)CC(=O)N(C)[C@@H](Cc2ccccc2)C(=O)N[C@@H](C(C)C)C(=O)N(C)[C@@H](C)C(=O)N[C@@H](C)C(=O)N[C@H](C)C(=O)N(C)[C@@H](CC(C)C)C(=O)N(C)[C@@H](CC(C)C)C(=O)N(C)[C@@H](C(C)C)C(=O)N1C [Compound C4] (cyclo([MeBmt][Abu][Sar][NMeF]V[NMeA]A[dA][NMeL][NMeL][NMeV])) when tested on Cyclophilin A (Homo sapiens, UniProt P62937).
Sequence (P62937 whole entry, species assumed): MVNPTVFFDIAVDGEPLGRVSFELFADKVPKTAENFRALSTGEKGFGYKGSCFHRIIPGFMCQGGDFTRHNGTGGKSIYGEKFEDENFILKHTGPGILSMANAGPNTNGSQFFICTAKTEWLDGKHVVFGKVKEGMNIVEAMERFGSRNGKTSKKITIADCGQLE
stdout: > 5.70
